# assay_target: Protein cereblon/Cyclin-dependent kinase 9 (Homo sapiens, UniProt P50750+Q96SW2)
# Sequence (P50750 whole entry, looked up): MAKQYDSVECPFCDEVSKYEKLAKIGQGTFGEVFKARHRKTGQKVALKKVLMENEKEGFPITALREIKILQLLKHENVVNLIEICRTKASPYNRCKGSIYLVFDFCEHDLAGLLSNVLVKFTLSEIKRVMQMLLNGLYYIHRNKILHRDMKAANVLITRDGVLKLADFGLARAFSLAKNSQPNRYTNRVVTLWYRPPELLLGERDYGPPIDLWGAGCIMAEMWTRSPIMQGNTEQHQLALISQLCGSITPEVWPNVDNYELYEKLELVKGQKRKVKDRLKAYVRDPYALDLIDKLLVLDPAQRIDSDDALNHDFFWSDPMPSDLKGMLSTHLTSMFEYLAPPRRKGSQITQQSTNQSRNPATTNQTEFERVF
# Sequence (Q96SW2 whole entry, looked up): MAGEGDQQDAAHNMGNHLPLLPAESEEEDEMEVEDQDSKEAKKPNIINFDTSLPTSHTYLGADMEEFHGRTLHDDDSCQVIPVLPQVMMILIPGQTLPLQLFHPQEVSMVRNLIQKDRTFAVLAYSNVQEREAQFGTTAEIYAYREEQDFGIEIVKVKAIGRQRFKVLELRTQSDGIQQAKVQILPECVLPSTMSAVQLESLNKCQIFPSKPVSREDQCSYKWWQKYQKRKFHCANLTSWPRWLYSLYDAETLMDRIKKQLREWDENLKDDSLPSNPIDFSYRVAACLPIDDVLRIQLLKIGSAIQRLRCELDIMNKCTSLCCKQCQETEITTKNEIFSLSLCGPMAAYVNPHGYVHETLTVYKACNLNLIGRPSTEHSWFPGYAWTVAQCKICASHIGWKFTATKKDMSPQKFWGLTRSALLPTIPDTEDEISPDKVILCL
# protocol_description: PROTAC activity at CRBN/CDK9 in human NCI-H446 cells assessed as induction of CDK9 degradation at 10 nM by Western blot analysis relative to control
# Format: cell-based

compound	Activity
O=C1CCC(N2C(=O)c3ccc(N4CCN(C(=O)CN5CCC(NC(=O)c6n[nH]cc6NC(=O)c6c(Cl)cccc6Cl)CC5)CC4)cc3C2=O)C(=O)N1 (stereo not drawn)	51.9%
O=C1CCC(N2C(=O)c3ccc(N4CCN(C(=O)CCC(=O)N5CCC(NC(=O)c6n[nH]cc6NC(=O)c6c(Cl)cccc6Cl)CC5)CC4)cc3C2=O)C(=O)N1 (stereo not drawn)	31.8%
O=C1CCC(N2C(=O)c3ccc(N4CCN(C(=O)CN5CCC(CN6CCC(NC(=O)c7n[nH]cc7NC(=O)c7c(Cl)cccc7Cl)CC6)CC5)CC4)cc3C2=O)C(=O)N1 (stereo not drawn)	49.9%

====

# assay_target: Protein cereblon/Cyclin-dependent kinase 9 (Homo sapiens, UniProt P50750+Q96SW2)
# protocol_description: PROTAC activity at CRBN/CDK9 in human NCI-H69 cells assessed as induction of CDK9 degradation at 10 nM by Western blot analysis relative to control
# Type: cell-based
measured_metric: Activity (%)

molecule	measured_metric	unit_info	readout_number
O=C1CCC(N2C(=O)c3ccc(N4CCN(C(=O)CN5CCC(NC(=O)c6n[nH]cc6NC(=O)c6c(Cl)cccc6Cl)CC5)CC4)cc3C2=O)C(=O)N1 (stereo not drawn)	Activity	%	44.2
O=C1CCC(N2C(=O)c3cccc(NCCCCC(=O)N4CCC(NC(=O)c5n[nH]cc5NC(=O)c5c(Cl)cccc5Cl)CC4)c3C2=O)C(=O)N1 (stereo not drawn)	Activity	%	3.91
O=C1CCC(Nc2cccc(N3CCN(CC4CCN(CC(=O)N5CCC(NC(=O)c6n[nH]cc6NC(=O)c6c(Cl)cccc6Cl)CC5)CC4)CC3)c2)C(=O)N1 (stereo not drawn)	Activity	%	91.2

====

# protocol_description: Oral bioavailability in mouse at 25 mg/kg
# Assay type: ADME, organism-based
# condition_parameters: in vivo

compound	bioavailability, %
O=C1CCC(Nc2cccc(N3CCN(CC4CCN(CC(=O)N5CCC(NC(=O)c6n[nH]cc6NC(=O)c6c(Cl)cccc6Cl)CC5)CC4)CC3)c2)C(=O)N1 (stereo unspecified)	6.8

====

The molecules listed here are annotated with their Papp B→A at 1 h, 2 µM.
# protocol_description: Apparent permeability across basolateral to apical side in human Caco-2 cells at 2 uM measured after 60 mins by HPLC analysis
# Assay type: ADME, cell-based
measured_metric: Papp B→A at 1 h, 2 µM (×10⁻⁶ cm/s)

molecule	unit_info	readout_number
O=C1CCC(N2C(=O)c3ccc(N4CCN(CC5CCN(CC(=O)N6CCC(NC(=O)c7n[nH]cc7NC(=O)c7c(Cl)cccc7Cl)CC6)CC5)CC4)cc3C2=O)C(=O)N1 (stereo not drawn)	×10⁻⁶ cm/s	5.27
CC(C)NCC(O)COc1cccc2ccccc12 (stereo not drawn) [PROPRANOLOL]	×10⁻⁶ cm/s	15.4
O=C1CCC(Nc2cccc(N3CCN(CC4CCN(CC(=O)N5CCC(NC(=O)c6n[nH]cc6NC(=O)c6c(Cl)cccc6Cl)CC5)CC4)CC3)c2)C(=O)N1 (stereo not drawn)	×10⁻⁶ cm/s	9.47

The reported measurements were obtained from ChEMBL document CHEMBL6121063.
